biological target: Cytochrome P450 2D6 (Homo sapiens)
Sequence (P10635 whole entry): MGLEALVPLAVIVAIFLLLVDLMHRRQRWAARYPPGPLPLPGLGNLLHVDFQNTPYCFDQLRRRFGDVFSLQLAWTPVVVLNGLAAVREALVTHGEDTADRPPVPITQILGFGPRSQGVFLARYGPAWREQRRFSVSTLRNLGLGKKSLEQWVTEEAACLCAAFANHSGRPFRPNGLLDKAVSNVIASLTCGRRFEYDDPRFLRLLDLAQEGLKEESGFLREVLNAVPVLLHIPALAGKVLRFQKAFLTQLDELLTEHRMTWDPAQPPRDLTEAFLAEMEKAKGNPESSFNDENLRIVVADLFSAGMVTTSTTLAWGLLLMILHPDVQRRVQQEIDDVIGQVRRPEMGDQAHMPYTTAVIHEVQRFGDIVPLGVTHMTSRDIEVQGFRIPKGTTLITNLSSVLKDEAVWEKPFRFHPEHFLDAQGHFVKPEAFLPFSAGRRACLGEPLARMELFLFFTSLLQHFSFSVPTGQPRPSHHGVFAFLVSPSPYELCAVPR
pIC50: −log10 of the molar value.
Readout name: pIC50

pIC50 for Cytochrome P450 2D6 (Homo sapiens) with input `CCN1c2ncc(CCOc3ccc(C(=O)O)cc3C)cc2C(=O)N(C)c2cccnc21` equals < 4.52

====

target: Human immunodeficiency virus type 1 reverse transcriptase (Human immunodeficiency virus 1, UniProt Q72547, K103N/Y181C); test: Effective concentration towards HIV-1 K103N/Y181C mutant reverse transcriptase activity by 50% measured in cellular assay
Label 1 when EC50 < 20 nM; otherwise -1.

Prompt: Please check: EC50 for `CCN1c2ncc(CCOc3ccc(C(=O)O)cc3C)cc2C(=O)N(C)c2ccc(F)nc21` , strictly under 20 nM or not?
Completion: 1

Prompt: Does the reported EC50 of the following compound sit strictly below 20 nM? `CCN1c2ncc(CCOc3ccc(CC(=O)O)cc3C)cc2C(=O)N(C)c2cccnc21`
Completion: -1

Prompt: Consider the compound `CCN1c2ncc(CCOc3ccc(C(=O)O)cc3C)cc2C(=O)N(C)c2ccc(Cl)nc21` . Is its EC50 strictly less than 20 nM?
Completion: 1

Prompt: Identify whether the compound `CCN1c2ncc(CCOc3ccc(C(=O)O)cc3C)cc2C(=O)N(C)c2cccnc21` records EC50 below 20 nM.
Completion: 1

Prompt: Just wondering, is EC50 of `CCc1cc(C(=O)O)ccc1OCCc1cnc2c(c1)C(=O)N(C)c1cccnc1N2CC` below 20 nM?
Completion: -1

Prompt: Decide: EC50 of `CCN1c2ncc(CCOc3ccc(C(=O)O)cc3)cc2C(=O)N(C)c2cccnc21` strictly below 20 nM?
Completion: -1

Ref: ChEMBL document CHEMBL1141165
